Tested on: S. aureus 78
Experiment: Microbroth dilution MIC with and without sucrose recovery
Format: cell-based, Staphylococcus aureus
Study Conditions: S. aureus 78 recovered by standard plating; MIC given as multiple of S/I/R
Outcome Measure: minimum inhibitory concentration (MIC), Standard

Smiles Structure	Target Desc	Value
CC[C@H]1OC(=O)[C@H](C)[C@@H](O[C@H]2C[C@@](C)(OC)[C@@H](O)[C@H](C)O2)[C@H](C)[C@@H](O[C@@H]2O[C@H](C)C[C@H](N(C)C)[C@H]2O)[C@](C)(O)C[C@@H](C)C(=O)[C@H](C)[C@@H](O)[C@]1(C)O	S. aureus 78	4R
Cc1onc(-c2ccccc2)c1C(=O)N[C@@H]1C(=O)N2[C@@H]1SC(C)(C)[C@@H]2C(=O)O	S. aureus 78	4R
CCC[C@@H]1C[C@@H](C(=O)N[C@@H]([C@H]2O[C@H](SC)[C@H](O)[C@@H](O)[C@H]2O)[C@H](C)Cl)N(C)C1	S. aureus 78	4R
CN[C@H](CC(C)C)C(=O)N[C@H]1C(=O)N[C@@H](CC(N)=O)C(=O)N[C@H]2C(=O)N[C@H]3C(=O)N[C@H](C(=O)N[C@H](C(=O)O)c4cc(O)cc(O)c4-c4cc3ccc4O)[C@H](O)c3ccc(c(Cl)c3)Oc3cc2cc(c3O[C@@H]2O[C@H](CO)[C@@H](O)[C@H](O)[C@H]2O[C@H]2C[C@](C)(N)[C@H](O)[C@H](C)O2)Oc2ccc(cc2Cl)[C@H]1O	S. aureus 78	¼S

Data provenance is patent US20240368667A1.
